Target: CFTR-mediated chloride transport (Homo sapiens)
Test: Corrector Assay A - membrane potential dye assay (enteroid cells)
Details: read-out: Corrector Assay A EC50; human intestinal enteroid cells, 18-24 h incubation; acute 10 μM forskolin + 300 nM ivacaftor
Entries annotated with measured EC50

Past entries and their recorded results:
INSERT INTO measurements (compound, quantity_measured, assay_value) VALUES
  ('CN(C)Cc1ccc(C2CC[C@@H]3CN(c4nc(C(C)(C)C)ccc4C(=O)NS(=O)(=O)c4cccc(n4)N2)C(C)(C)C3)nc1 (stereo partly drawn) [Compound 103]', 'EC50', '< 1000 nM'),
  ('CC(C)(C)c1ccc2c(n1)N1C[C@@H](CCC(CCC(C3CC3)C3CC3)Nc3cccc(n3)S(=O)(=O)NC2=O)CC1(C)C (single isomer, unassigned) [Compound 51]', 'EC50', '> 3000 nM'),
  ('CC(C)c1ccc(-c2ccc3c(n2)N2C[C@@H](CC[C@@H](c4ccccn4)Nc4cccc(n4)S(=O)(=O)NC3=O)CC2(C)C)cc1 [Compound 348]', 'EC50', '< 1000 nM'),
  ('COC(=O)NCc1ccc(C2CC[C@@H]3CN(c4nc(C(C)(C)C)ccc4C(=O)NS(=O)(=O)c4cccc(n4)N2)C(C)(C)C3)nc1 (stereo partly drawn) [Compound 88]', 'EC50', '< 1000 nM');

Which value of EC50 has been reported for CC(C)(C)c1ccc2c(n1)N1C[C@@H](CCC(c3cc(C4CCNCC4)ccn3)Nc3cccc(n3)S(=O)(=O)NC2=O)CC1(C)C (stereo partly drawn) [Compound 124] in the records?
< 1000 nM

Give its EC50 value. Item: CC(C)(C)c1ccc2c(n1)N1C[C@@H](CCC(c3ccc(C4CCNCC4)cn3)Nc3cccc(n3)S(=O)(=O)NC2=O)CC1(C)C (stereo partly drawn) [Compound 153]
< 1000 nM

---

Target: CFTR-mediated chloride transport (Homo sapiens, UniProt P13569)
Assay: Corrector Assay A - membrane potential dye assay (enteroid cells)
Settings: % of chloride transport of triple combination control (1 μM (14S)-dispiro macrocycle + 3 μM tezacaftor + 300 nM ivacaftor)
quantity.measured: Corrector Assay A % activity

INSERT INTO measurements (compound, quantity_measured, assay_value) VALUES
  ('CC1(C)C[C@@H]2CC[C@H](c3ccccn3)Nc3cccc(n3)S(=O)(=O)NC(=O)c3ccc(-c4cccc(OCC5CCC5)n4)nc3N1C2', 'Corrector Assay A % activity', '+++ (+++ is >60%)'),
  ('Cc1cccc2cc3c(nc12)N1C[C@@H](CCC(c2cc(C(C)(C)C)ccn2)Nc2cccc(n2)S(=O)(=O)NC3=O)CC1(C)C (single isomer, unassigned) [Compound 3]', 'Corrector Assay A % activity', '+++ (+++ is >60%)');

---

Biological target: CFTR-mediated chloride transport (Homo sapiens, UniProt P13569)
Experiment: Corrector Assay A - membrane potential dye assay (enteroid cells)
Settings: % of chloride transport of triple combination control (1 μM (14S)-dispiro macrocycle + 3 μM tezacaftor + 300 nM ivacaftor)
quantity.measured: Corrector Assay A % activity

Some compounds with known Corrector Assay A % activity results, for comparison:
INSERT INTO measurements (compound, assay_value) VALUES
  ('COC(=O)NCc1ccnc(C2CC[C@@H]3CN(c4nc(C(C)(C)C)ccc4C(=O)NS(=O)(=O)c4cccc(n4)N2)C(C)(C)C3)c1 (single isomer, unassigned) [Compound 108]', '++ (++ is 30-60%)'),
  ('CC(C)(C)c1ccc2c(n1)N1C[C@@H](CCC(c3cc(C4COC4)ccn3)Nc3cccc(n3)S(=O)(=O)NC2=O)CC1(C)C (single isomer, unassigned) [Compound 25]', '+++ (+++ is >60%)'),
  ('CC(C)N(C(=O)CCCC1CC[C@@H]2CN(c3nc(C(C)(C)C)ccc3C(=O)NS(=O)(=O)c3cccc(n3)N1)C(C)(C)C2)C(C)C (some centres unmarked)', '+++ (+++ is >60%)'),
  ('CC(C)(C)c1ccc2c(n1)N1C[C@@H](CCC(c3ccccn3)Nc3cccc(n3)S(=O)(=O)NC2=O)CC1(C)C (single isomer, unassigned) [Compound 293]', '++ (++ is 30-60%)'),
  ('CC(C)c1ccc(-c2ccc3c(n2)N2C[C@@H](CC[C@H](c4ccccn4)Nc4cccc(n4)S(=O)(=O)NC3=O)CC2(C)C)cc1', '+++ (+++ is >60%)'),
  ('CC(C)(C)c1ncc2c(n1)N1C[C@@H](CCCNc3cccc(n3)S(=O)(=O)NC2=O)CC1(C)C', '++ (++ is 30-60%)'),
  ('CC1(C)C[C@@H]2CC[C@H](c3ccccn3)Nc3cccc(n3)S(=O)(=O)NC(=O)c3ccc(Cc4ccccc4)nc3N1C2', '+++ (+++ is >60%)'),
  ('COC(=O)CCc1ccc(C2CC[C@@H]3CN(c4nc(C(C)(C)C)ccc4C(=O)NS(=O)(=O)c4cccc(n4)N2)C(C)(C)C3)nc1 (some centres unmarked) [Compound 90]', '++ (++ is 30-60%)'),
  ('CC(C)(C)c1ccc2c(n1)N1C[C@@H](CC[C@@H](C3CCCCC3)Nc3cccc(n3)S(=O)(=O)NC2=O)CC1(C)C (single isomer, unassigned) [Compound 235]', '++ (++ is 30-60%)');

So what does the record say about Corrector Assay A % activity for CC(C)(C)c1ccc2c(n1)N1C[C@@H](CC[C@@H](c3cc(C4CCOCC4)ccn3)Nc3cccc(n3)S(=O)(=O)NC2=O)CC1(C)C (single isomer, unassigned) [Compound 121] ?
+++ (+++ is >60%)

---

Target: CFTR-mediated chloride transport (Homo sapiens)
Assay: Corrector Assay A - membrane potential dye assay (enteroid cells)
Details: % of chloride transport of triple combination control (1 μM (14S)-dispiro macrocycle + 3 μM tezacaftor + 300 nM ivacaftor)
quantity.measured: Corrector Assay A % activity

INSERT INTO assay_data (molecule, assay_value) VALUES
  ('CC(C)(C)c1ccc2c(n1)N1C[C@@H](CCC(CCCC(=O)O)Nc3cccc(n3)S(=O)(=O)NC2=O)CC1(C)C (stereo partly drawn)', '+++ (+++ is >60%)'),
  ('CC1(C)C[C@@H]2CCC(c3ccccn3)Nc3cccc(n3)S(=O)(=O)NC(=O)c3ccc(-n4ccc(OCCC5C6(CC6)C56CC6)n4)nc3N1C2 (stereo partly drawn)', '+++ (+++ is >60%)'),
  ('CC(C)(C)c1ccc2c(n1)N1CC(CCCNc3cc(O)cc(n3)S(=O)(=O)NC2=O)CC1(C)C (single isomer, unassigned) [Compound 250]', '++ (++ is 30-60%)'),
  ('CC(C)(C)c1ccc2c(n1)N1C[C@@H](CC[C@H](c3cccc(C4=CCNCC4)n3)Nc3cccc(n3)S(=O)(=O)NC2=O)CC1(C)C', '+++ (+++ is >60%)'),
  ('CC(C)(C)c1ccc2c(n1)N1C[C@@H](CCC(c3cc(C(C)(C)O)ccn3)Nc3cccc(n3)S(=O)(=O)NC2=O)CC1(C)C (single isomer, unassigned)', '+++ (+++ is >60%)');

Please report the recorded Corrector Assay A % activity for CC(C)(C)c1ccc2c(n1)N1C[C@@H](CC[C@@H](c3ccncn3)Nc3cccc(n3)S(=O)(=O)NC2=O)CC1(C)C (single isomer, unassigned) [Compound 217] .
++ (++ is 30-60%)

Given CC(C)(C)c1ccc2c(n1)N1C[C@@H](CCC(c3ccc(C4CC4)cn3)Nc3cccc(n3)S(=O)(=O)NC2=O)CC1(C)C (stereo partly drawn) [Compound 170] , state its recorded Corrector Assay A % activity.
+++ (+++ is >60%)

Which Corrector Assay A % activity is listed for CC(C)(C)c1ccc2c(n1)N1C[C@@H](CCC(CC(O)CO)Nc3cccc(n3)S(=O)(=O)NC2=O)CC1(C)C (single isomer, unassigned) [Compound 31] ?
++ (++ is 30-60%)

Can you look up the measured Corrector Assay A % activity of CC(C)c1cnn(-c2ccc3c(n2)N2C[C@@H](CC[C@H](c4ccccn4)Nc4cccc(n4)S(=O)(=O)NC3=O)CC2(C)C)c1 for me?
++ (++ is 30-60%)

I have this molecule here, CC(C)(C)NC(=O)CCCC1CC[C@@H]2CN(c3nc(C(C)(C)C)ccc3C(=O)NS(=O)(=O)c3cccc(n3)N1)C(C)(C)C2 (stereo partly drawn) , and I need its recorded Corrector Assay A % activity.
+++ (+++ is >60%)

# get_value(readout='Corrector Assay A % activity', item= CC(C)(C)c1ccc2c(n1)N1C[C@@H](CC[C@@H](C3CCCCC3)Nc3cccc(n3)S(=O)(=O)NC2=O)CC1(C)C (single isomer, unassigned) [Compound 234] )
++ (++ is 30-60%)

---

Molecular target: CFTR-mediated chloride transport (Homo sapiens)
Experiment: Corrector Assay A - membrane potential dye assay (enteroid cells)
Conditions: % of chloride transport of triple combination control (1 μM (14S)-dispiro macrocycle + 3 μM tezacaftor + 300 nM ivacaftor)
quantity.measured: Corrector Assay A % activity

Please review the following examples before continuing.
INSERT INTO assay_data (molecule, assay_value) VALUES
  ('CC(C)(C)c1ccc2c(n1)N1C[C@@H](CC[C@@H](c3ccccc3)Nc3cccc(n3)S(=O)(=O)NC2=O)CC1(C)C (single isomer, unassigned) [Compound 294]', '+++ (+++ is >60%)'),
  ('CC(C)(C)c1ccnc([C@H]2CC[C@@H]3CN(c4nc(Br)ccc4C(=O)NS(=O)(=O)c4cccc(n4)N2)C(C)(C)C3)c1 [Compound 55]', '++ (++ is 30-60%)'),
  ('CC(C)C1CC[C@@H]2CN(c3nc(C(C)(C)C)ccc3C(=O)NS(=O)(=O)c3cccc(n3)N1)C(C)(C)C2 (single isomer, unassigned) [Compound 286]', '+++ (+++ is >60%)'),
  ('CC(C)CC#Cc1ccc2c(n1)N1C[C@@H](CC[C@@H](c3ccccn3)Nc3cccc(n3)S(=O)(=O)NC2=O)CC1(C)C [Compound 158]', '++ (++ is 30-60%)'),
  ('CC(C)(C)c1ccc2c(n1)N1C[C@@H](CCC(c3ccc(C4CNC4)cn3)Nc3cccc(n3)S(=O)(=O)NC2=O)CC1(C)C (stereo partly drawn) [Compound 165]', '++ (++ is 30-60%)');

Which Corrector Assay A % activity value belongs to CC(C)(C)c1ccc2c(n1)N1C[C@@H](CCC(c3ccc(CCC#N)cn3)Nc3cccc(n3)S(=O)(=O)NC2=O)CC1(C)C (stereo partly drawn) [Compound 146] ?
+++ (+++ is >60%)

// returns reported Corrector Assay A % activity for input CC(C)c1ccn(-c2ccc3c(n2)N2C[C@@H](CC[C@H](c4ccccn4)Nc4cccc(n4)S(=O)(=O)NC3=O)CC2(C)C)n1 [Compound 336]
+++ (+++ is >60%)

Which Corrector Assay A % activity is listed for CC(C)(C)c1ccc2c(n1)N1C[C@@H](CCC(c3cc(CCCN)ccn3)Nc3cccc(n3)S(=O)(=O)NC2=O)CC1(C)C (single isomer, unassigned) [Compound 109] ?
+++ (+++ is >60%)
